- MEASUREMENT_DESCRIPTION: in vitro
- RECORDED_CONDITIONS: woodchuck
REPORTED_ENDPOINT: CC50 (µg/mL)
Give bare numbers, in µg/mL.

GET /values?readout=CC50&item= NC(=O)c1ncn([C@@H]2O[C@H](CO)[C@@H](O)[C@H]2O)n1 [ribavirin, reference compound] 0.35

----------
- System: HCV replicon subgenomic 1a
- MEASUREMENT_DESCRIPTION: HCV replicon SEAP reporter assay, subgenomic 1a
- Type: cell-based, hepatitis C virus
- RECORDED_CONDITIONS: 4 days
REPORTED_ENDPOINT: EC50 (µM)
Numbers only, in µM.

Item: C[C@@]1(O)[C@H](O)[C@@H](CO)O[C@H]1n1ccc(N)nc1=O Test system: HCV replicon subgenomic 1a Read-out: EC50 Value: ? 61.6
